target: Histone deacetylase; experiment: Inhibition of HDAC in human HeLa cell nuclear extract using Boc-Lys (acetyl)-AMC as substrate preincubated for 5 mins followed by substrate addition measured after 30 mins by microplate reader analysis
observed.property: IC50 (nM)
Just the number please, in nM, no unit attached.

*Q* Enter reported IC50 observed with Histone deacetylase for COc1cc(NC(=O)CCCCCCC(=O)NO)ccc1Nc1nccc(-c2cn(C)c3ccccc23)n1
*A* 85

====

system: MCF7; assay: Antiproliferative activity against human MCF7 cells assessed as cell growth inhibition incubated for 42 hrs by MTT assay; assay type: functional, cell-based; details: MCF7, 42 h
observed.property: pIC50
Units for pIC50: none; it is -log10 of a concentration expressed in mol/L.

- compound.smiles: "COc1cc2ncnc(Sc3cccc(NC(=S)Nc4ccc(Br)c(C(F)(F)F)c4)c3)c2cc1OC"
  pIC50: 5.25

Kindly consider the entry below.
*Q* Which pIC50 value belongs to COc1cc2ncnc(Oc3cccc(NC(=S)Nc4ccc(Cl)c(C(F)(F)F)c4)c3)c2cc1OC ?
*A* 5.25

====

target: Hepatocyte growth factor receptor (Homo sapiens, UniProt P08581)
Sequence (P08581 whole entry): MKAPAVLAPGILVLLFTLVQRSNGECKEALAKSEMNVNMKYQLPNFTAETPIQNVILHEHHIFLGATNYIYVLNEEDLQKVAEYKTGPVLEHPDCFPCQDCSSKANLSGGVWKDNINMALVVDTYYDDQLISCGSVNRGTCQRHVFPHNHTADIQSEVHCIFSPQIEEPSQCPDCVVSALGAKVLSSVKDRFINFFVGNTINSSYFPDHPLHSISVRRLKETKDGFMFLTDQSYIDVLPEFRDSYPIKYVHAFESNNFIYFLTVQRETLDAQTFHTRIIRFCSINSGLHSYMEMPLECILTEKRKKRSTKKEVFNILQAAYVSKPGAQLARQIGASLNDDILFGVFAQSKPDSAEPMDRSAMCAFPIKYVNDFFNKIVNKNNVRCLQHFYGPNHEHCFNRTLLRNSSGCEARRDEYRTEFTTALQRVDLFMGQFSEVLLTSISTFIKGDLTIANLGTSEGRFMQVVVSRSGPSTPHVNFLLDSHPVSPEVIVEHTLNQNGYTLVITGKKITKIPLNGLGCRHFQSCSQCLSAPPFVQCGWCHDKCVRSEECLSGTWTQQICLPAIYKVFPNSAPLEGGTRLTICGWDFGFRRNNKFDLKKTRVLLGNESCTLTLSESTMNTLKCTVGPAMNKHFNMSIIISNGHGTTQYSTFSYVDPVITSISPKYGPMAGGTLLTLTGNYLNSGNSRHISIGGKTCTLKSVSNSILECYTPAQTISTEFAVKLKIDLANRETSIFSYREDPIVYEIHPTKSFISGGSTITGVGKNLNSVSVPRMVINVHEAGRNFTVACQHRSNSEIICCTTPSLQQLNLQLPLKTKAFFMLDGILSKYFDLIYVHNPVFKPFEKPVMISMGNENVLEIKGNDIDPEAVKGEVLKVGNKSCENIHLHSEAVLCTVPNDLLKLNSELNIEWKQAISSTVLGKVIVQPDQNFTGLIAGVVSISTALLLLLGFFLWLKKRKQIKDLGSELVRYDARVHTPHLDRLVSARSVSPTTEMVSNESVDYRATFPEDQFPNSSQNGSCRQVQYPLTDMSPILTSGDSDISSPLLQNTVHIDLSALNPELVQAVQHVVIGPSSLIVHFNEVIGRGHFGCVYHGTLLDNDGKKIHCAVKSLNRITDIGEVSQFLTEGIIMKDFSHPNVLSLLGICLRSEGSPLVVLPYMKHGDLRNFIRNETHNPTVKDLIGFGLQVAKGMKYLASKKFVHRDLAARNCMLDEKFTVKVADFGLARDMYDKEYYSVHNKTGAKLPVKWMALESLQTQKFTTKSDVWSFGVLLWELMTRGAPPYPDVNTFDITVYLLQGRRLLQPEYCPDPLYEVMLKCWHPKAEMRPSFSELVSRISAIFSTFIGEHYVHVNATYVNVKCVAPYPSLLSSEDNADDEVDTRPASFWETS
observed.property: IC50
A bare number is not enough; add the unit after it.

*Q* Which IC50 value belongs to CC(C)c1ccc(Cn2cc(-c3cc(-c4ccc(Br)cc4)nc(N)n3)c3ccccc32)cc1 ?
*A* 0.595 µM

====

system: HCT-116; test: Antiproliferative activity against human HCT-116 cells assessed as cell growth inhibition incubated for 42 hrs by MTT assay; type: functional, cell-based; conditions: HCT-116, 42 h
# reported IC50; entries follow
Just the number please, in µM, no unit attached.

- compound.smiles: "COc1cc2ncnc(Oc3cccc(NC(=S)Nc4ccc(Cl)c(C(F)(F)F)c4)c3)c2cc1OC"
  IC50 (µM): 5.57

*Q* Enter reported IC50 observed with HCT-116 for COc1cc2ncnc(Sc3cccc(NC(=S)Nc4ccc(Br)c(C(F)(F)F)c4)c3)c2cc1OC
*A* 5.57

====

molecular target: UniProt P00533; test: Inhibition of EGFR (unknown origin) incubated for 30 mins in presence of ATP by fluorescence based analysis
observed.property: pIC50
Units for pIC50: none; it is -log10 of a concentration expressed in mol/L.

*Q* Which pIC50 value belongs to Cc1nn(-c2ccc(F)cc2)c2ncnc(Nc3ccc(F)c(Cl)c3)c12 ?
*A* 6.73

====

test system: MCF7; experiment: Antiproliferative activity against human MCF7 assessed as cell growth inhibition measured after 72 hrs by MTT assay; type: functional, cell-based; conditions: MCF7, 72 h
observed.property: IC50 (nM)
Just the number please, in nM, no unit attached.

*Q* Which IC50 value belongs to CCc1nnc2c(Nc3ccc(C(=O)/C=C/c4cc(OC)c(OC)c(OC)c4)cc3)nc3ccccc3n12 ?
*A* 1650

====

# reported IC50; entries follow
target: Epidermal growth factor receptor (Homo sapiens, UniProt P00533, T790M); experiment: Inhibition of EGFR T790M mutant (unknown origin) incubated for 1 hr by Z-lyte kinase assay
Sequence (P00533 25-1210 T790M limits assumed): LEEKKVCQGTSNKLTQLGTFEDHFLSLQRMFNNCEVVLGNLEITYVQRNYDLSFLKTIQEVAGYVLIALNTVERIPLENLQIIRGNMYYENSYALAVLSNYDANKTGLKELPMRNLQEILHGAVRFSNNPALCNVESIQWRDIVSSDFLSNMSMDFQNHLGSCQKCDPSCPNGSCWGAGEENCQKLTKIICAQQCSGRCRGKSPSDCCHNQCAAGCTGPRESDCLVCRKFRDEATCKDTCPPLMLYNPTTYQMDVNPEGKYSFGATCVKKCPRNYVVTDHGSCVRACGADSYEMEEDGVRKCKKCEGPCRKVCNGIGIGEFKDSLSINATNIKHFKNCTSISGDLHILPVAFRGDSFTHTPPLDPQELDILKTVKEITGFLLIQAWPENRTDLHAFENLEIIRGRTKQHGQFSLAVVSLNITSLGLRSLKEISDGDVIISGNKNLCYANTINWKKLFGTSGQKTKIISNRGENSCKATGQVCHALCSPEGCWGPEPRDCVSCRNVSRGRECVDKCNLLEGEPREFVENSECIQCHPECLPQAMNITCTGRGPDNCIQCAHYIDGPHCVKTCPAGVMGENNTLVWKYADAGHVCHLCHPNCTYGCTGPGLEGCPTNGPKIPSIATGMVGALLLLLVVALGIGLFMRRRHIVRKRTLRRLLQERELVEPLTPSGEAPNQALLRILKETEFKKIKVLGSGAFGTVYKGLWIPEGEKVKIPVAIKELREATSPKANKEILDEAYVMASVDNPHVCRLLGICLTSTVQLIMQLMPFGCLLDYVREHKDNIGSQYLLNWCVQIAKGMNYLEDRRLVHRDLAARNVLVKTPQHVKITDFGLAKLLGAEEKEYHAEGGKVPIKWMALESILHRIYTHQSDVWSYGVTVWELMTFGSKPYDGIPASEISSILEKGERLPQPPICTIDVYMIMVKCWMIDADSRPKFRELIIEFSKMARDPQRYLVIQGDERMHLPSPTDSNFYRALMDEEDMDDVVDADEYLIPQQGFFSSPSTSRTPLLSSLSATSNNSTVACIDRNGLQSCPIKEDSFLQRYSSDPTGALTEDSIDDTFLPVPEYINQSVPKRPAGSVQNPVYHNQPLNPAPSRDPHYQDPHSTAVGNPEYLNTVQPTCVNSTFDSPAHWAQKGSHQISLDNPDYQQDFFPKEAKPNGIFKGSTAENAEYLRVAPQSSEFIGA
Just the number please, in nM, no unit attached.

Some compounds with recorded IC50:
- compound.smiles: "Nc1nc(-c2ccc(Br)cc2)cc(-c2cn(Cc3cccc(Cl)c3)c3ccccc23)n1"
  IC50 (nM): 195
- compound.smiles: "CC(C)c1ccc(Cn2cc(-c3cc(-c4ccc(Br)cc4)nc(N)n3)c3ccccc32)cc1"
  IC50 (nM): 94

Kindly consider the entry below.
*Q* Enter reported IC50 observed with Epidermal growth factor receptor (Homo sapiens, UniProt P00533, T790M) for CCc1ccc(Cn2cc(-c3cc(-c4ccc(Br)cc4)nc(N)n3)c3ccccc32)cc1
*A* 97

====

target: Epidermal growth factor receptor (Homo sapiens); test: Inhibition of human EGFR expressed in baculovirus expression system using CAGAGAIETDKEYYTVKD as substrate preincubated for 10 mins followed by substrate and ATP addition measured after 1 hr by TR-FRET assay
observed.property: IC50 (nM)
Just the number please, in nM, no unit attached.

*Q* Which IC50 value belongs to O=C(Cc1ccccc1)Nc1cccc(-c2nc3n(c2-c2ccnc(Nc4ccc(N5CCOCC5)cc4)n2)CCS3)c1 ?
*A* 35.5

====

biological target: Epidermal growth factor receptor (Homo sapiens, UniProt P00533); assay: Inhibition of EGFR (unknown origin) by ADP-Glo kinase assay
Sequence (P00533 whole entry): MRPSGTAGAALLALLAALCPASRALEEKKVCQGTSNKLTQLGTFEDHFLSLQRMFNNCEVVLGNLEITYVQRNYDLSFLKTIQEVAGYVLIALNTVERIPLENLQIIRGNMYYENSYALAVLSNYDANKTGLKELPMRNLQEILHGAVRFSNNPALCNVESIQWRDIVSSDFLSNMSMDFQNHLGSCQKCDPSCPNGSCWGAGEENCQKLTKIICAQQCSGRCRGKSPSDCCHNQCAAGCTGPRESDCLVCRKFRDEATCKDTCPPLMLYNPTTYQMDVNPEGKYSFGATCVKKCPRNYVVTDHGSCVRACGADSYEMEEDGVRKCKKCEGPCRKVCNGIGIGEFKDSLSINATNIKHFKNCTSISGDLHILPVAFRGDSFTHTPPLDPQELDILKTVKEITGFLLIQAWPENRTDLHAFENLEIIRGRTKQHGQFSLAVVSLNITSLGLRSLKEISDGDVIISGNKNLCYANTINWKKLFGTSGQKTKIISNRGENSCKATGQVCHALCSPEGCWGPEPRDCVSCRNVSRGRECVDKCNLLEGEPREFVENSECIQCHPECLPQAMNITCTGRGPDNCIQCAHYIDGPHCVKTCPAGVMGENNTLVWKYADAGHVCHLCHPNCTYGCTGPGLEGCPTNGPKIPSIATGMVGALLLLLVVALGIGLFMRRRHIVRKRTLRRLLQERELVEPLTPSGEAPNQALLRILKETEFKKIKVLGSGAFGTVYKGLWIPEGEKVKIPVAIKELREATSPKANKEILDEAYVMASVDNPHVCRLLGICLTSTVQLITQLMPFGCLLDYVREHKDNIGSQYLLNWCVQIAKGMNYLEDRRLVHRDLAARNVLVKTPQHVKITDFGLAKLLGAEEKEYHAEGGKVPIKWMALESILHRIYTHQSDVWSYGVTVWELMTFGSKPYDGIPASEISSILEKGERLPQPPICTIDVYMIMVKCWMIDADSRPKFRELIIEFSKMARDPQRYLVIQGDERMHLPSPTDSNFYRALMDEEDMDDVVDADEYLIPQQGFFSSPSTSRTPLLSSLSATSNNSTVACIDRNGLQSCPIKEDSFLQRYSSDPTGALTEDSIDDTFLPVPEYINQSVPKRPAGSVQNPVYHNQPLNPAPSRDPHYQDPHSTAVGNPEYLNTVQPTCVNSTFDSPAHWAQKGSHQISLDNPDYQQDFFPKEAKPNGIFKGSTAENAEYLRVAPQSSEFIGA
observed.property: pIC50
Units for pIC50: none; it is -log10 of a concentration expressed in mol/L.

*Q* Which pIC50 value belongs to COc1ccc(CCOc2ccc(C(=O)/C=C/c3ccc(O)c(O)c3)cc2OC)cc1OC ?
*A* 4.95

====

target: Tubulin; assay: Inhibition of tubulin polymerization in human HCT-116 cells incubated for 18 to 24 hrs by horseradish peroxidase based ELISA method; format: cell-based
observed.property: IC50

*Q* Enter reported IC50 observed with Tubulin for CCc1nnc2c(Nc3ccc(C(=O)/C=C/c4cc(OC)c(OC)c(OC)c4)cc3)nc3ccccc3n12
*A* 8.84 µM

====

biological target: Fibroblast growth factor receptor 1 (Homo sapiens, UniProt P11362); experiment: Inhibition of N-terminal GST-tagged recombinant wild type human FGFR1 (398 to 822 residues) expressed in baculovirus infected Sf21 cells incubated for 1 hr in presence of ATP by caliper mobility shift assay
observed.property: pIC50
Units for pIC50: none; it is -log10 of a concentration expressed in mol/L.

*Q* Which pIC50 value belongs to CN1CCN(c2ccc(Nc3ncc(Br)c(Nc4ccc5cn[nH]c5c4)n3)cc2)CC1 ?
*A* 7.75

====

# reported IC50; entries follow
biological target: Epidermal growth factor receptor (Homo sapiens); assay: Inhibition of EGFR (unknown origin) using FAM-labeled peptide as substrate incubated for 10 mins in presence of ATP by caliper mobility shift assay
Just the number please, in nM, no unit attached.

- compound.smiles: "COc1cc2ncnc(Sc3cccc(NC(=S)Nc4ccc(Br)c(C(F)(F)F)c4)c3)c2cc1OC"
  IC50 / nM: 10

Kindly consider the entry below.
*Q* Enter reported IC50 observed with Epidermal growth factor receptor (Homo sapiens) for COc1cc2ncnc(Oc3cccc(NC(=S)Nc4ccc(Cl)c(C(F)(F)F)c4)c3)c2cc1OC
*A* 20

====

biological target: Vascular endothelial growth factor receptor 2 (Homo sapiens, UniProt P35968); test: Inhibition of VEGFR2 (unknown origin)
Sequence (P35968 whole entry): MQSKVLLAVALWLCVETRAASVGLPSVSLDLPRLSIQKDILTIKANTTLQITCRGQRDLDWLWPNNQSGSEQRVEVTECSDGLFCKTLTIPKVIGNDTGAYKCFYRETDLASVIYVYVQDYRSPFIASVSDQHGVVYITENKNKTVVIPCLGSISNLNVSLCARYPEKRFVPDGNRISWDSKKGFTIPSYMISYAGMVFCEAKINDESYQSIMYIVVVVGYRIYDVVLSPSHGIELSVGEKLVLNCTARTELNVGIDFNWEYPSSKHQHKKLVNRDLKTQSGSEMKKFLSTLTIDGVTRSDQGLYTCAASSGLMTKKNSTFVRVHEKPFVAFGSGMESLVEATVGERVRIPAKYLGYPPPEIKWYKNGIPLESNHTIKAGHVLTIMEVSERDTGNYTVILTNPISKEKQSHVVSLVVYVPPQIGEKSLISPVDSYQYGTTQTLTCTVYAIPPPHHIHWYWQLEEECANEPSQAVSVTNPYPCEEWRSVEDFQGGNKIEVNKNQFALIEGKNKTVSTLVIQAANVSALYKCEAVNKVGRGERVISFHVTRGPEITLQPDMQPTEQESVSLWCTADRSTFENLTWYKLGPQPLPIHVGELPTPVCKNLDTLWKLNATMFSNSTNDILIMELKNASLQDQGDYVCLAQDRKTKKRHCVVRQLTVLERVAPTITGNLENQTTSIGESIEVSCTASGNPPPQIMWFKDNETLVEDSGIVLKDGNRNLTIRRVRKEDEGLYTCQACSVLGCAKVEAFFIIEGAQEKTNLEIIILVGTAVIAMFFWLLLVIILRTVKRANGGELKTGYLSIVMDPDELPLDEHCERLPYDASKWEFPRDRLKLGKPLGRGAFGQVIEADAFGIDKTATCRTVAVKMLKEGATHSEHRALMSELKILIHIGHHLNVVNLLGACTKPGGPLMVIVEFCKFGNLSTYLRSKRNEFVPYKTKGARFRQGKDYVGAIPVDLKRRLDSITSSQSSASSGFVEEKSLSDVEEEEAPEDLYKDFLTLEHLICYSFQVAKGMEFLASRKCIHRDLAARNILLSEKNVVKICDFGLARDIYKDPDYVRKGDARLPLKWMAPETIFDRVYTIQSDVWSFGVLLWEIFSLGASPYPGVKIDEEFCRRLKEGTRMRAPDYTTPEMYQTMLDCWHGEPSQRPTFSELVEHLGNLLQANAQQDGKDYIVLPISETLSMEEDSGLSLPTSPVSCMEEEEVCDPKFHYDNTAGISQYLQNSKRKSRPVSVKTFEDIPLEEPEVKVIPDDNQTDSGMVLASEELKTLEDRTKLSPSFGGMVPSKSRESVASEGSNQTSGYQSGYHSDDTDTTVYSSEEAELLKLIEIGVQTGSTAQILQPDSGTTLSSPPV
observed.property: pIC50
Units for pIC50: none; it is -log10 of a concentration expressed in mol/L.

*Q* Enter reported pIC50 observed with Vascular endothelial growth factor receptor 2 (Homo sapiens, UniProt P35968) for C=CC(=O)Nc1cc2c(Nc3ccc(Br)cc3F)ncnc2cc1OCCNC(=O)CN(C)C
*A* 6.99

====

tested on: NCI-H1975; test: Antiproliferative activity against human NCI-H1975 cells assessed as cell growth inhibition incubated for 72 hrs by MTS assay; type: functional, cell-based; settings: NCI-H1975, 72 h
observed.property: pIC50
Units for pIC50: none; it is -log10 of a concentration expressed in mol/L.

*Q* Which pIC50 value belongs to CN1CCN(c2ccc(Nc3ncc(Br)c(Nc4ccc5cn[nH]c5c4)n3)cc2)CC1 ?
*A* 6.47

====

system: A-431; assay: Antiproliferative activity against human A-431 cells assessed as cell growth inhibition; assay type: functional, cell-based
observed.property: pIC50
Units for pIC50: none; it is -log10 of a concentration expressed in mol/L.

Some molecules with recorded pIC50:
- molecule: "CCOc1cc2ncc(C#N)c(Nc3ccc(OCc4ccccn4)c(Cl)c3)c2cc1NC(=O)/C=C/CN(C)C [NERATINIB]"
  quantitative.readout: 5.67
- molecule: "CCOc1cc2ncc(C#N)c(Nc3ccc(OCc4ccccc4)cc3)c2cc1NC(=O)/C=C/c1cccnc1"
  quantitative.readout: 5.72

*Q* Which pIC50 value belongs to C=CC(=O)Nc1cc2c(Nc3ccc(Br)cc3F)ncnc2cc1OCCNC(=O)CN(C)C ?
*A* 7.85

====

target: UniProtKB P09619; experiment: Binding affinity to GST-tagged human recombinant PDFGR beta expressed in baculovirus infected Sf9 insect cells assessed as inhibition constant using poly(Ala,Glu,Lys,Tyr) 6:2:5.1 as substrate incubated for 60 mins in presence of [gamma33P]ATP by microplate scintillation counter analysis
observed.property: pKi
Units for pKi: none; it is -log10 of a concentration expressed in mol/L.

*Q* Which pKi value belongs to Nc1nc(Nc2ccc(COc3cccc(F)c3)cc2)c2c(n1)[nH]c1ccc(O)cc12 ?
*A* 7.09

====

# reported IC50; entries follow
test system: B16; test: Antiproliferative activity against mouse B16 cells assessed as cell growth inhibition incubated for 42 hrs by MTT assay; assay type: functional, cell-based; conditions: B16, 42 h
Just the number please, in µM, no unit attached.

- compound.smiles: "COc1cc2ncnc(Oc3cccc(NC(=S)Nc4ccc(Cl)c(C(F)(F)F)c4)c3)c2cc1OC"
  output.unit: "µM"
  quantitative.readout: 5.57

Kindly consider the entry below.
*Q* Which IC50 value belongs to COc1cc2ncnc(Sc3cccc(NC(=S)Nc4ccc(Br)c(C(F)(F)F)c4)c3)c2cc1OC ?
*A* 5.57
